Provide the reported kon of each item.
molecular target: mCTLA-4-Fc (R&D Systems) (mouse, UniProt P09793 36-162); assay: SPR as in Example 9
Sequence (P09793 whole entry): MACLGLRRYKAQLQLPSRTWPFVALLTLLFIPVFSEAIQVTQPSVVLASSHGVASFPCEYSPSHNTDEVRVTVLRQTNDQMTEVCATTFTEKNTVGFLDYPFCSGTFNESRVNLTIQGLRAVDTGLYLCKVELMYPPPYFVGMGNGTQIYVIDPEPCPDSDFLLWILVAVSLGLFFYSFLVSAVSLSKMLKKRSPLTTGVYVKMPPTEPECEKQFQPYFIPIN
Answers are plain numbers, in M⁻¹ s⁻¹.

hNGAL mutein S140.3-P07 (designed binder, tagged entry not tied to the name; not shown: N-terminal T7 detection tag from vector phNGAL37; C-terminal Strep-tag II from vector phNGAL37) QDSTSDLIPAPPLSKVPLQQNFQDNQFHGKWYVVGLAGNRILRDDQHPMNMYATIYELKEDKSYNVTSVIFPHKKCEYTIATFVPGSQPGEFTLGNIKSYGDKTSYLVRVVSTDYNQYAVVFFKLAEDDAEFFAITIYGRTKELASELKENFIRFSKSLGLPENHIVFPVPIDQCIDG = 6800
hNGAL mutein S140.2-P24 (designed binder, tagged entry not tied to the name; not shown: N-terminal T7 detection tag from vector phNGAL37; C-terminal Strep-tag II from vector phNGAL37) QDSTSDLIPAPPLSKVPLQQNFQDNQFHGKWYVVGLAGNRILRDDQHPMDMYATIYELKEDKSYNVTSVISSHKKCEYTIATFVPGSQPGEFTLGNIKSYGDKTSYLVRVVSTDYSQYAVVFFKLAEDNAEFFAITIYGRTKELASELKENFIRFSKSLGLPENHIVFPVPIDQCIDG = 15000
hNGAL mutein S140.4-O10 without T7 tag (designed binder, also called S140.4-O10 (-T7 tag); S140.4-O10(-T7)) QDSTSDLIPAPPLSKVPLQQNFQDNQFHGKWYVVGLAGNRILRDDQHPMNMYATIYELKEDKSYNVTSVISSHKKCEYTIATFVPGSQPGEFTLGNIKSYGDKTSYLVRVVSTDYNQYAVVFFKLAEDNAEFFAITIYGRTKELASELKENFIRFSKSLGLPENHIVFPVPIDQCIDG = 27200

Okay, here is my list. What is kon for each of these?
1. hNGAL mutein S140.4-B16 (designed binder, tagged entry not tied to the name; not shown: N-terminal T7 detection tag from vector phNGAL37; C-terminal Strep-tag II from vector phNGAL37) QDSTSDLIPAPPLSKVPLQQNFQDNQFHGKWYVVGLAGNRILRDDQHPMNMYATIYELKEDKSYNVTSVIFPHKKCEYTIATFVPGSQPGEFTLSDIKSYGDKTSYLVRVVSTDYNQYAVVFFKLAEDNAEFFAITIYGRTKELASELKENFIRFSKSLGLPENHIVFPVPIDQCIDG
2. hNGAL mutein S140.1-F09 (designed binder, tagged entry not tied to the name; not shown: N-terminal T7 detection tag from vector phNGAL37; C-terminal Strep-tag II from vector phNGAL37) QDSTSDLIPAPPLSKVPLQQNFQDNQFHGKWYVVGLAGNRILRDDQHPMNMYATIYELKEDKSYNVTSVISSHKKCEYTIATFVPGSQPGEFTLGNIKSYGDKTSYLVRVVSTNYNQYAVVFFKLAEDNAEFFAITIYGRTKELASELKENFIRFSKSLGLPENHIVFPVPIDQCIDG
3. hNGAL mutein S140.4-O10 (designed binder, also called Onc I-002) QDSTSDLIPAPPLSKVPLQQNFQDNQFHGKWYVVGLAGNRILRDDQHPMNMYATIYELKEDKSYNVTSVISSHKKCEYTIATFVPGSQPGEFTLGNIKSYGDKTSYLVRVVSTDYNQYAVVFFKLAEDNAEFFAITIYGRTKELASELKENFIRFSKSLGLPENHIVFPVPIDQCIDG

Result ::
1: 5000; 2: 14000; 3: 11900

Cited source for all entries: patent US20090042785A1
